Please go through the items and note down their activity, negative = inhibition.
- Assay: qHTS profiling for inhibitors of Plasmodium falciparum proliferation (AID 504749);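 note: 0% = DMSO vehicle and full inhibition = artemisinin control; nearly all actives have a fitted effect of over 60% in size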
- Assay setup: P. falciparum in erythrocytes, SYBR Green DNA, 72 h; at 28.7 µM (top of the series); parasite line B
Records with an inconclusive call do not appear.
Supply the numeric figure in %, leaving out any unit text.

Per the records, this compound ( O=c1[nH]c(=O)c2ccccc2o1 ) has activity, negative = inhibition equal to 10.5

Entry COc1ccccc1OC(=O)Oc1ccccc1OC ; activity, negative = inhibition = 5.57

# activity, negative = inhibition (compound: C=CCSCC1Nc2cc(Cl)c(S(N)(=O)=O)cc2S(=O)(=O)N1 (configuration not stated) ) is 13.6

Value of measured activity, negative = inhibition for the entry CCOc1cc(NC(C)=O)ccc1C(=O)OC : 12.8

Data point: O[C@@H]1CO[C@H]2[C@@H]1OC[C@@H]2O ; activity, negative = inhibition = 1.12

Entry under test: O=C(NCN1CCOCC1)c1cnccn1 . Its activity, negative = inhibition was 11.7

# activity, negative = inhibition of CC(C)C[C@@H](N)C(=O)O = 22.5

The recorded activity, negative = inhibition for Cc1cc(=O)[nH]c(=S)[nH]1 is 5.6

Measured activity, negative = inhibition of COC(=O)c1ccccc1C(=O)c1ccc(OCCN2CCCCC2)cc1 : 5.94

Briefly, activity, negative = inhibition measured for NNC(=O)CP(=O)(c1ccccc1)c1ccccc1 : 6.41

activity, negative = inhibition recorded for this compound, CCCC(O)C(CC)CO (configuration not stated) , is 6.77

// recorded activity, negative = inhibition for O=c1[nH]c2cc(C(F)(F)F)c(N3CCOCC3)cc2n(CP(=O)(O)O)c1=O : -0.254

get_value(item= C[C@H]1COc2c(C3(N)CC3)c(F)cc3c(=O)c(C(=O)O)cn1c23 , readout=activity, negative = inhibition) returns -23.2

// recorded activity, negative = inhibition for O=C(Cn1ccnc1[N+](=O)[O-])NCCO : -2.11

Briefly, activity, negative = inhibition measured for CN1CCCN=C1COC(=O)C(O)(c1ccccc1)C1CCCCC1 (configuration not stated) : -4.74

// CCN(CC)CCOC(=O)C(c1ccccc1)c1ccccc1 : activity, negative = inhibition value = -12.1

So, c1ccc2[nH]ccc2c1 ? Its activity, negative = inhibition was 19.4

For record NC(=O)NS(=O)(=O)c1ccc(N)cc1 the listed activity, negative = inhibition is 15.9

The compound listed as CC(O)CCCCn1c(=O)c2c(ncn2C)n(C)c1=O (configuration not stated) shows activity, negative = inhibition equal to 4.96

// sample Cc1cc(C)nc(NS(=O)(=O)c2ccc(N)cc2)n1 , its activity, negative = inhibition was 10.9

The compound identified as CCCNC(C)(C)COC(=O)c1ccccc1 registered its activity, negative = inhibition at 9.96

Item: CCCCCC(N)=O | activity, negative = inhibition: 8.74

# activity, negative = inhibition of O=C(O)Cc1ccc(CCNS(=O)(=O)c2ccc(Cl)cc2)cc1 = -5.95

// recorded activity, negative = inhibition for Cc1cccc(Nc2ccccc2C(=O)O)c1C : 15.2

Kindly note the recorded activity, negative = inhibition for CC(CSC(=O)c1ccccc1)C(=O)N1C[C@@H](Sc2ccccc2)C[C@H]1C(=O)O (some centres not stated) , which is 2.24

Reported activity, negative = inhibition ( O=C(O)CCCCC1CCSS1 (configuration not stated) ) = 12.3

Sample CC(C)c1cc2c(cc1S(=O)(=O)O)[C@@]1(C)CCC[C@@](C)(C(=O)O)[C@@H]1CC2 ; activity, negative = inhibition observed: -0.445

====

- Tested on: MCC-26
- Assay: qHTS assay to identify novel small-molecules to repurpose for Merkel cell carcinoma treatment (AID 1296009); note: % is set by controls: 0 for no effect and ±100 for the full control effect; nearly all actives have a fitted effect of over 60% in size
- Assay setup: MCC and control cell lines, CellTiter-Glo viability, 72 h; series mostly up to 46 µM
Results filed as inconclusive are left out. Activity calls are given as the source filed them. Calls come from the whole dose curve; as a rule, active = well fitted inhibition curve with a large enough effect; inconclusive = small, poorly fitted or top-dose-only effect; inactive = flat fitted curve, though single readings scatter.
Measured quantity: activity change, negative = cytotoxicity

Worked set:
# Compound, activity change, negative = cytotoxicity
data = [
    ("CN1C(C)(C)CCCC1(C)C", "inactive"),
    ("NC(N)=NCCN1CCCCCCC1", "12.5% [at 0.597 µM] (inactive)"),
    ("Cc1cccc(C(=O)O)c1O", "inactive"),
    ("CC(C)CCCC(C)CCCC(C)CCCCC(C)CCCC(C)CCCC(C)C (centres undefined)", "inactive"),
    ("C[C@@H]1CCC[C@H](C)N1", "inactive"),
    ("CCN(CC)CCc1nc(-c2ccccc2)no1", "inactive"),
    ("C[n+]1ccccc1/C=N/O", "inactive"),
    ("NC(=O)CC[C@@H](N)C(=O)O", "inactive"),
    ("CC(=O)Nc1ccc(C(=O)O)cc1", "inactive"),
    ("CC(=O)N[C@@H](CC(C)C)C(=O)O", "inactive"),
]

Reported activity change, negative = cytotoxicity of CCC(C)(CN(C)C)OC(=O)c1ccccc1 (centres undefined) : inactive

The reported activity change, negative = cytotoxicity of the compound CN1CCCN=C1COC(=O)C(O)(c1ccccc1)C1CCCCC1 (centres undefined) was inactive

// CCOc1cc(NC(C)=O)ccc1C(=O)OC : activity change, negative = cytotoxicity value = inactive

====

- System name: Calcium and integrin-binding protein 1 (Homo sapiens)
- Assay: Primary qHTS for Identification of Calcium Integrin Binding Protein 1 (CIB1) Competitor (AID 1508620);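 note: GST tagged CIB1 binding a fluorescein labelled alphaIIb integrin peptide tracer; top concentration of the series differs between compounds; % is set by controls: 0 for no effect and ±100 for the full control effect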
- Assay setup: CIB1-GST / FITC-alphaIIb peptide fluorescence polarization; series mostly up to 114 µM
Records with an inconclusive call do not appear. Active and inactive are the calls of the source. The call rests on the fitted dose curve; in most records, active means well fitted inhibition curve with a large enough effect; inconclusive means small, poorly fitted or top-dose-only effect; inactive means flat fitted curve, though single readings scatter.
Measured quantity: activity change, negative = inhibition

# Molecule, activity change, negative = inhibition
data = [
    ("O=C(O)c1ccccc1C(=O)Nc1ccc(S(=O)(=O)Nc2nccs2)cc1", "inactive"),
    ("CCOc1ccc(C(=O)OCCN(CC)CC)cc1", "inactive"),
    ("CC(=O)OCC(=O)[C@@]1(O)CC[C@H]2[C@@H]3CCC4=CC(=O)C=C[C@]4(C)[C@@]3(F)[C@@H](O)C[C@@]21C", "inactive"),
    ("OCC(O)CS (stereo unspecified)", "inactive"),
    ("O=c1[nH]c2cc(C(F)(F)F)c(N3CCOCC3)cc2n(CP(=O)(O)O)c1=O", "inactive"),
]

// recorded activity change, negative = inhibition for Nc1ccc(C(=O)Oc2ccccc2)c(O)c1 : inactive

====

- System name: Glucocorticoid receptor (Homo sapiens) (UniProt P04150)
- Sequence (P04150 whole entry, looked up): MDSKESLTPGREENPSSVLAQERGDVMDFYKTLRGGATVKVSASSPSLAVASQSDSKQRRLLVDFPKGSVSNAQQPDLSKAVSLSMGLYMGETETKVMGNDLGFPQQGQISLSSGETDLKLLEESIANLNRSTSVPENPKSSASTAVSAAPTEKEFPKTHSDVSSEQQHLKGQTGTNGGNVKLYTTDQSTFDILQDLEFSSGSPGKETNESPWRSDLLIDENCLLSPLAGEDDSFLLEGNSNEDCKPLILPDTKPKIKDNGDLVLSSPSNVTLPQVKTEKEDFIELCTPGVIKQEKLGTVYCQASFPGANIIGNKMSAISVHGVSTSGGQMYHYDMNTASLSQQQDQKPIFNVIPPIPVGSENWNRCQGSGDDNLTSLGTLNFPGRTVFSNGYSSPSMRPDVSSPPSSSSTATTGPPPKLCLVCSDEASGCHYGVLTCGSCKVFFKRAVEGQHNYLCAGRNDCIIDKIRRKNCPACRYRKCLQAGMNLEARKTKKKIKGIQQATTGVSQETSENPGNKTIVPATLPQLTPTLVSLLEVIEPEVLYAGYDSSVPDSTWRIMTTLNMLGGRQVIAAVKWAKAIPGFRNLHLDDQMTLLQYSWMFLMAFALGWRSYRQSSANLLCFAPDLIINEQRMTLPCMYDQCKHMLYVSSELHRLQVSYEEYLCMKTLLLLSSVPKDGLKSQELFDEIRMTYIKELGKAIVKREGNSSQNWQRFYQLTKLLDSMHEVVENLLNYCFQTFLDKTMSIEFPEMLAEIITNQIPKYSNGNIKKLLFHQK
- Assay: GR-EFC Redistribution (AID 451); note: potency is the fitted concentration of half-maximal effect
- Assay setup: CHO-K1 GR-EFC translocation, beta-gal luminescence, 2 h
Activity calls are given as the source filed them. The call rests on the fitted dose curve.
Measured quantity: Potency

The reported value for COc1ccc(NS(=O)(=O)c2ccc(N)cc2)nn1 in terms of Potency is > 20.6 µM (inactive)

The recorded Potency for NS(=O)(=O)c1cc2c(cc1C(F)(F)F)NCNS2(=O)=O is > 20.6 µM (inactive)

Noted for Cc1c(NC(=O)c2cccnc2)c(=O)n(-c2ccccc2)n1C : its Potency reads > 20.6 µM (inactive)

Value of measured Potency for the entry CN(C(=O)c1c(O)c2ccccc2n(C)c1=O)c1ccccc1 : > 46 µM (inactive)

Just so you know, measured Potency for O=C(O)c1ccccc1OP(=O)(O)O came out at > 20.6 µM (inactive)

Please fill in: Potency reported for Cn1c([N+](=O)[O-])cnc1COC(N)=O = > 20.6 µM (inactive)

The recorded Potency for Cc1c(NC(C)C)c(=O)n(-c2ccccc2)n1C is > 20.6 µM (inactive)

// Potency lookup, compound = NC(=O)CC[C@@H](N)C(=O)O , result: > 46 µM (inactive)

Potency reading for C[C@@H]1CCC[C@H](C)N1 : > 20.6 µM (inactive)

Briefly, Potency measured for CCc1cccc(CC)c1NC(=O)CN(CC(=O)O)CC(=O)O : > 20.6 µM (inactive)

Per the records, this compound ( CC(=O)NS(=O)(=O)c1ccc(N)cc1 ) has Potency equal to > 20.6 µM (inactive)

Field Potency (entry C[C@@H](N)C(=O)O ) reads > 46 µM (inactive)

====

- System: OV90
- Assay: Primary qHTS to identify gynecologic anti-cancer compounds using libraries of approved drugs and bioactive compounds (AID 1345084); note: % is set by controls: 0 for no effect and ±100 for the full control effect; nearly all actives have a fitted effect of over 55% in size
- Assay setup: Gynecologic cancer cell panel viability, ATPlite luminescence, 48 h; series mostly up to 57.5 µM
Inconclusive results are not listed. The source made the active and inactive calls. The call rests on the fitted dose curve; in most records, active means well fitted cell-killing curve with a large enough effect; inconclusive means small, poorly fitted or top-dose-only effect, or effect the other way; inactive means flat fitted curve, though single readings scatter.
Measured quantity: activity change, negative = cytotoxicity

Known activity change, negative = cytotoxicity results, listed for orientation:
# Compound, activity change, negative = cytotoxicity
rows = [
    ("CC1(C)S[C@@H]2[C@H](N=CN3CCCCCC3)C(=O)N2[C@H]1C(=O)O", "inactive"),
    ("CN(C/C=C/C#CC(C)(C)C)Cc1cccc2ccccc12", "inactive"),
    ("O=C(O)Cc1cn(-c2ccccc2)nc1-c1ccc(Cl)cc1", "inactive"),
    ("CC(N)CCCC(C)(C)O (configuration not stated)", "inactive"),
    ("CC(C)CCOC(=O)c1ccc(N(C)C)cc1", "inactive"),
    ("COCC(=O)Nc1c(I)c(C(=O)NCC(O)CO)c(I)c(C(=O)N(C)CC(O)CO)c1I (configuration not stated)", "inactive"),
    ("C/C(=C(\\CCO)SS/C(CCO)=C(\\C)N(C=O)Cc1cnc(C)nc1N)N(C=O)Cc1cnc(C)nc1N", "inactive"),
    ("O=C1c2cccc(O)c2C(=O)c2c(O)cccc21", "inactive"),
]

The compound COC(=O)c1cccnc1 on OV90: activity change, negative = cytotoxicity was inactive

Reading of activity change, negative = cytotoxicity for O=C(O)CCCCC1CCSS1 (configuration not stated) with OV90: inactive

Entry Cc1ccsc1/C=C/C1=NCCCN1C , OV90 data, activity change, negative = cytotoxicity value: inactive

The measured activity change, negative = cytotoxicity that Cc1cc(NC(=O)C2=C(O)c3ccccc3S(=O)(=O)N2C)no1 showed for OV90 is inactive

These entries and their values trace back to PubChem BioAssay (NCATS).
